- tested-on: human MER (528-end) (Homo sapiens, UniProt Q12866)
- Construct: human MER (528-end)
- Sequence (Q12866 528-999 limits assumed): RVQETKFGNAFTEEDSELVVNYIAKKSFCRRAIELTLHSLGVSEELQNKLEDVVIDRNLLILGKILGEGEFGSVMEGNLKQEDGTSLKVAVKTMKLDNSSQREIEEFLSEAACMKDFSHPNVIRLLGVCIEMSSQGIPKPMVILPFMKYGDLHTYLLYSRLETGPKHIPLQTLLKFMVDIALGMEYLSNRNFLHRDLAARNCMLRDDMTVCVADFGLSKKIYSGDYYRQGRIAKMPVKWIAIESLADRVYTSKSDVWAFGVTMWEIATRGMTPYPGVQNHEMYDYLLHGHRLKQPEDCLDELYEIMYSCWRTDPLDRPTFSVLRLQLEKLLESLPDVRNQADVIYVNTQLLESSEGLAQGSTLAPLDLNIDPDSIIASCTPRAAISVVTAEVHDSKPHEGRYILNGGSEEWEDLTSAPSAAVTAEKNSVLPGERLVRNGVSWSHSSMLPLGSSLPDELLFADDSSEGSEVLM
- test-description: HTRF kinase activity biochemical assay, MER
- measurement-setup: recombinant kinase, 10 uM ATP, 30 minutes pre-incubation; read-out: HTRF MERTK IC50
Measured IC50 by item

molecule	result-modifier	IC50, nM
Cn1cc(Nc2ncc(C3CN(c4nc5ccc(CCC(=O)N6CCCC6)cc5o4)C3)nc2C(N)=O)cn1 [Example 63]	=	11
CC(C)(O)CCOc1ccc2nc(N3CC(c4cnc(Nc5cnn(C(C)(C)C)c5)c(C(N)=O)n4)C3)oc2c1 [Example 94]	<	1
COCCn1cc(Nc2ncc(C3CN(c4nc5ccc(C)cc5o4)C3)nc2C(N)=O)cn1 [Example 55]	=	3
Cn1cc(Nc2ncc(C3CN(c4nc5ccc(CC(=O)N6CCCC6)cc5o4)C3)nc2C(N)=O)cn1 [Example 65]	<	1
Cn1cc(Nc2ncc(C3CN(c4nc5ccc(OCC(CO)CO)cc5o4)C3)nc2C(N)=O)cn1 [Example 51]	=	3
Cn1cc(Nc2ncc(C3CN(c4nc5ccc(C6=CCOC6)cc5o4)C3)nc2C(N)=O)cn1 [Example 15A]	=	2
Cn1cc(Nc2ncc(C3CN(c4nc5ccc(OCC6(O)CCC6)cc5o4)C3)nc2C(N)=O)cn1 [Example 44]	<	1
Cn1cc(Nc2ncc(C3CN(c4nc5ccc(OCC6(O)COC6)cc5o4)C3)nc2C(N)=O)cn1 [Example 57]	=	7

* * *

Item-by-item account of pIC50
- tested-on: human MER (528-end) (Homo sapiens)
- Construct: human MER (528-end)
- test-description: HTRF kinase activity biochemical assay, MER;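 also: phosphorylation of a biotin-tagged tyrosine kinase substrate detected by Eu3+-cryptate antibody and streptavidin-XL665 time-resolved fluorescence, read after 1 h at room temperature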
- measurement-setup: recombinant kinase, 10 uM ATP, 30 minutes pre-incubation; read-out: HTRF MERTK IC50
pIC50: −log10 of the molar value.

compound	result-modifier	pIC50
Cn1cc(Nc2ncc(C3CN(c4nc5ccc(CC(CO)CO)cc5o4)C3)nc2C(N)=O)cn1 [Example 25]	=	8.15
Cn1cc(Nc2ncc(C3CN(c4nc5ccc(OCCC(C)(C)OC(=O)CN)cc5o4)C3)nc2C(N)=O)cn1 [Example 95]	>	9.00
CN1CCCC(Oc2ccc3nc(N4CC(c5cnc(Nc6cnn(C)c6)c(C(N)=O)n5)C4)oc3c2)C1=O (centres unmarked) [Example 76]	>	9.00
Cn1cc(Nc2ncc(C3CN(c4nc5ccc(OC6CCCC6O)cc5o4)C3)nc2C(N)=O)cn1 (centres unmarked) [Example 79]	>	9.00
Cn1cc(Nc2ncc(C3CN(c4nc5ccc(CC(=O)O)cc5o4)C3)nc2C(N)=O)cn1 [Example 65C]	=	7.46

* * *

- tested-on: TYRO3 (455-end) (Homo sapiens, UniProt Q06418)
- Construct: TYRO3 (455-end)
- Sequence (Q06418 455-890 limits assumed): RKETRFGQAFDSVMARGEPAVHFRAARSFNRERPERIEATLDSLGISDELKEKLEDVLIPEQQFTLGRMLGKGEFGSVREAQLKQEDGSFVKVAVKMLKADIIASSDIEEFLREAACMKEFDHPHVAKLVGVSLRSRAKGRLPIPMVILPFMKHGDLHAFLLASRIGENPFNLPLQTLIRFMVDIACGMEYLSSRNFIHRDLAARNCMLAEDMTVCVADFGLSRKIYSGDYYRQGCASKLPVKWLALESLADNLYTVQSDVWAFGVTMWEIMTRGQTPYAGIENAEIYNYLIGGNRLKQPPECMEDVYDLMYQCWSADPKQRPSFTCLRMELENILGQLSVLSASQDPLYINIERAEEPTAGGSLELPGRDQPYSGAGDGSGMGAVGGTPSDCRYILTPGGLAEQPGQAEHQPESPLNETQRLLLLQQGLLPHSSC
- test-description: HTRF kinase activity biochemical assay, TYRO3;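 also: biotinylated tyrosine kinase substrate phosphorylation detected via streptavidin-XL665 and Eu3+-cryptate anti-phospho antibody time-resolved fluorescence, read after 1 h detection at room temperature, 384-well format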
- measurement-setup: recombinant kinase, 10 uM ATP, 30 minutes pre-incubation; read-out: HTRF TYRO IC50
Note: every record was labeled by where its IC50 sits among low group: < 300 nM; middle group: ≥ 300 nM and < 1000 nM; high group: ≥ 1000 nM

compound	tested-on	assigned-category
Cn1cc(Nc2ncc(C3CN(c4nc5ccc(C6CCOC6)cc5o4)C3)nc2C(N)=O)cn1 (stereo not shown)	TYRO3 (455-end) (Homo sapiens, UniProt Q06418)	middle group
Cn1cc(Nc2ncc(C3CN(c4nc5ccc(CC(CO)CO)cc5o4)C3)nc2C(N)=O)cn1	TYRO3 (455-end) (Homo sapiens, UniProt Q06418)	high group
Cc1ccc2nc(N3CC(c4cnc(Nc5cn[nH]c5)c(C(N)=O)n4)C3)oc2c1	TYRO3 (455-end) (Homo sapiens, UniProt Q06418)	low group
Cn1cc(Nc2ncc(C3CN(c4nc5ccc(OCCC(C)(C)OC(=O)CN)cc5o4)C3)nc2C(N)=O)cn1	TYRO3 (455-end) (Homo sapiens, UniProt Q06418)	low group
Cn1cc(Nc2ncc(C3CN(c4nc5ccc(OCC6(O)CCC6)cc5o4)C3)nc2C(N)=O)cn1	TYRO3 (455-end) (Homo sapiens, UniProt Q06418)	low group
Cn1cc(Nc2ncc(C3CN(c4nc5ccc(C6CCCCC6)cc5o4)C3)nc2C(N)=O)cn1	TYRO3 (455-end) (Homo sapiens, UniProt Q06418)	middle group
Cn1cc(Nc2ncc(C3CN(c4nc5ccc(C6=CCOC6)cc5o4)C3)nc2C(N)=O)cn1 [Example 15A]	TYRO3 (455-end) (Homo sapiens, UniProt Q06418)	low group
Cn1cc(Nc2ncc(C3CN(c4nc5ccc(OCC(CO)CO)cc5o4)C3)nc2C(N)=O)cn1	TYRO3 (455-end) (Homo sapiens, UniProt Q06418)	high group
CC(C)(O)CCOc1ccc2nc(N3CC(c4cnc(Nc5cnn(C(C)(C)C)c5)c(C(N)=O)n4)C3)oc2c1	TYRO3 (455-end) (Homo sapiens, UniProt Q06418)	middle group
Cn1cc(Nc2ccc(C3CN(c4nc5ccc(OCC(C)(C)OP(=O)(O)O)cc5o4)C3)nc2C(N)=O)cn1	TYRO3 (455-end) (Homo sapiens, UniProt Q06418)	high group
Cn1cc(Nc2ncc(C3CN(c4nc5ccc(CC(=O)O)cc5o4)C3)nc2C(N)=O)cn1 [Example 65C]	TYRO3 (455-end) (Homo sapiens, UniProt Q06418)	high group
CN1CCCC(Oc2ccc3nc(N4CC(c5cnc(Nc6cnn(C)c6)c(C(N)=O)n5)C4)oc3c2)C1=O (stereo not shown)	TYRO3 (455-end) (Homo sapiens, UniProt Q06418)	low group
Cn1cc(Nc2ncc(C3CN(c4nc5ccc(CCC(=O)N6CCCC6)cc5o4)C3)nc2C(N)=O)cn1	TYRO3 (455-end) (Homo sapiens, UniProt Q06418)	high group

* * *

- tested-on: human AXL (473-end) (Homo sapiens)
- Construct: human AXL (473-end)
- Sequence (P30530 473-894 limits assumed): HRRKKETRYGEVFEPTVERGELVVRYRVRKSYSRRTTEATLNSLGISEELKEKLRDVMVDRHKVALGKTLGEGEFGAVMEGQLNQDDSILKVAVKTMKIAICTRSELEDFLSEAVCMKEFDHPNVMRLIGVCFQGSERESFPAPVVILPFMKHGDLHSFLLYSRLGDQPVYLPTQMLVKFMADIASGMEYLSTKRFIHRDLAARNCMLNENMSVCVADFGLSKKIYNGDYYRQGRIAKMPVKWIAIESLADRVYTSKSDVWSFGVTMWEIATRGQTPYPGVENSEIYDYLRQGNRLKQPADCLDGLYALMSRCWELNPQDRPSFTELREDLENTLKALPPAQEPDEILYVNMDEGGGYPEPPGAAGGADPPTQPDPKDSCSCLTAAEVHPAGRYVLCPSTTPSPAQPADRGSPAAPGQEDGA
- test-description: HTRF kinase activity biochemical assay, AXL
- measurement-setup: recombinant kinase, 10 uM ATP, 30 minutes pre-incubation; read-out: HTRF AXL IC50
pIC50: −log10 of the molar value.
In this section we review reported pIC50 values for a set of compounds.
experimental-endpoint: pIC50

compound	value
Cn1cc(Nc2ncc(C3CN(c4nc5ccc(CC(CO)CO)cc5o4)C3)nc2C(N)=O)cn1 [Example 25]	8.00
Cn1cc(Nc2ncc(C3CN(c4nc5ccc(OCC6(O)COC6)cc5o4)C3)nc2C(N)=O)cn1 [Example 57]	8.10
Cn1cc(Nc2ncc(C3CN(c4nc5ccc(CCC(=O)N6CCCC6)cc5o4)C3)nc2C(N)=O)cn1 [Example 63]	7.80
CC(C)(O)CCOc1ccc2nc(N3CC(c4cnc(Nc5cnn(C(C)(C)C)c5)c(C(N)=O)n4)C3)oc2c1 [Example 94]	8.52

* * *

- tested-on: human AXL (473-end) (Homo sapiens)
- Construct: human AXL (473-end)
- test-description: HTRF kinase activity biochemical assay, AXL
- measurement-setup: recombinant kinase, 10 uM ATP, 30 minutes pre-incubation; read-out: HTRF AXL IC50
pIC50: −log10 of the molar value.
Listing of entries alongside the reported pIC50.
experimental-endpoint: pIC50

molecule	value
Cn1cc(Nc2ncc(C3CN(c4nc5ccc(OC[C@H]6C[C@H]6CO)cc5o4)C3)nc2C(N)=O)cn1	9.00
Cn1cc(Nc2ncc(C3CN(c4nc5ccc(OC6CCCC6O)cc5o4)C3)nc2C(N)=O)cn1 (stereo not drawn)	8.70
Cn1cc(Nc2ncc(C3CN(c4nc5ccc(C6=CCOC6)cc5o4)C3)nc2C(N)=O)cn1 [Example 15A]	8.30
Cn1cc(Nc2ncc(C3CN(c4nc5ccc(OCC(CO)CO)cc5o4)C3)nc2C(N)=O)cn1	8.22
Cc1ccc2nc(N3CC(c4cnc(Nc5cn[nH]c5)c(C(N)=O)n4)C3)oc2c1	8.40
Cn1cc(Nc2ncc(C3CN(c4nc5ccc(CC(=O)O)cc5o4)C3)nc2C(N)=O)cn1 [Example 65C]	7.02
COCCn1cc(Nc2ncc(C3CN(c4nc5ccc(C)cc5o4)C3)nc2C(N)=O)cn1	7.85
CN1CCCC(Oc2ccc3nc(N4CC(c5cnc(Nc6cnn(C)c6)c(C(N)=O)n5)C4)oc3c2)C1=O (stereo not drawn)	8.70
Cn1cc(Nc2ncc(C3CN(c4nc5ccc(OCCC(C)(C)OC(=O)CN)cc5o4)C3)nc2C(N)=O)cn1	8.52

* * *

- tested-on: human AXL (473-end) (Homo sapiens)
- Construct: human AXL (473-end)
- test-description: HTRF kinase activity biochemical assay, AXL;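 also: phosphorylation of a biotinylated tyrosine kinase substrate detected via Eu3+-cryptate anti-TK antibody and streptavidin-XL665, fluorescence read after a 1 h incubation at room temperature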
- measurement-setup: recombinant kinase, 10 uM ATP, 30 minutes pre-incubation; read-out: HTRF AXL IC50
pIC50: −log10 of the molar value.
Items are presented alongside their recorded pIC50.

compound	pIC50
Cn1cc(Nc2ncc(C3CN(c4nc5ccc(CC(=O)N6CCC[C@H]6CO)cc5o4)C3)nc2C(N)=O)cn1	8.52
Cn1cc(Nc2ncc(C3CN(c4nc5ccc(C6CCOC6)cc5o4)C3)nc2C(N)=O)cn1 (stereo not shown)	8.05
Cn1cc(Nc2ccc(C3CN(c4nc5ccc(OCC(C)(C)OP(=O)(O)O)cc5o4)C3)nc2C(N)=O)cn1	8.22
Cn1cc(Nc2ncc(C3CN(c4nc5ccc(CC(=O)N6CCCC6)cc5o4)C3)nc2C(N)=O)cn1	9.00
Cn1cc(Nc2ncc(C3CN(c4nc5ccc(-c6cnn(C)c6)cc5o4)C3)nc2C(N)=O)cn1	8.52
Cn1cc(Nc2ncc(C3CN(c4nc5ccc(C6CCCCC6)cc5o4)C3)nc2C(N)=O)cn1	8.22
Cn1cc(Nc2ncc(C3CN(c4nc5ccc(OCC6(O)CCC6)cc5o4)C3)nc2C(N)=O)cn1	8.70
